Would you kindly list Potency for each of these compounds?
# procedure-text: Drug repurposing screens with cells derived from glioblastoma tumor samples (AID 1345199); further: potency means the concentration at half of the fitted maximal effect; nearly all actives have a fitted effect of over 40% in size
# experimental-context: GBM patient neurospheres viability, ATP luminescence, 48 h; tumour line D
# Method: CD133+ cells were isolated from GBM patient biopsies and cultured as neurospheres. Neurospheres from four patients were used to screen the NCATS pharmaceutical collection (NPC) library of approved drugs and bioactive compounds. […] The neurospheres were incubated with drugs for 48 hours in 1536-well format, then assayed with an ATP content cell viability assay. […]
Inconclusive results are not listed. Activity calls are given as the source filed them. The call rests on the fitted dose curve; in most records, active means well fitted inhibition curve with a large enough effect; inconclusive means small, poorly fitted or top-dose-only effect; inactive means flat fitted curve, though single readings scatter.

Prompt: Which Potency reading was recorded for the compound O=C(Nc1ccc(Cl)c(Cl)c1)C1CC1 ?
Completion: 20 µM (active)

Prompt: Which Potency reading was recorded for the compound Clc1ccc2c(c1)CCc1cccnc1C2=C1CCNCC1 ?
Completion: 20 µM (active)

Prompt: Which Potency reading was recorded for the compound Cc1c(C)n(Cc2ccccc2)c2ccc(C(=O)OCCN(C)C)cc12 ?
Completion: 10 µM (active)

Prompt: Which Potency reading was recorded for the compound O=C(CCCN1CCC(O)(c2ccc(Br)cc2)CC1)c1ccc(F)cc1 ?
Completion: 8.91 µM (active)

Prompt: Which Potency reading was recorded for the compound C[n+]1c2cc(N)ccc2cc2ccc(N)cc21 (tested in a mixture with another compound) ?
Completion: 5.01 µM (active)

Prompt: Which Potency reading was recorded for the compound c1ccc(-c2ccc(C(c3ccccc3)n3ccnc3)cc2)cc1 (stereo not drawn) ?
Completion: 11.2 µM (active)

Prompt: Which Potency reading was recorded for the compound COc1ccc(/C=C/C(=O)c2ccc(OC)cc2OC)cc1 ?
Completion: 12.6 µM (active)

Prompt: Which Potency reading was recorded for the compound CN(C)CCCOc1nn(Cc2ccccc2)c2ccccc12 ?
Completion: 7.08 µM (active)

###

# procedure-text: Cell Viability - LYMP1-002 - Assay at 40 hr (AID 994); further: nearly all actives have a fitted effect of over 60% in size
# experimental-context: LYMP1-002 lymphoblastoid cell viability; series mostly up to 92.2 µM
Records with an inconclusive call do not appear. Active and inactive are the calls of the source. Calls come from the whole dose curve; as a rule, active = well fitted cell-killing curve with a large enough effect; inconclusive = small, poorly fitted or top-dose-only effect; inactive = flat fitted curve, though single readings scatter.
Hello, when you answer, please use one of the following outcomes: true (1) for active, false (0) for inactive

Prompt: # outcome recorded in this test, key = CCCCCCc1ccc(O)cc1O
Completion: false (0)

Prompt: # outcome recorded in this test, key = C=CCc1ccc(O)c(OC)c1
Completion: false (0)

Prompt: # outcome recorded in this test, key = Oc1c(Cl)cc(Cl)cc1Sc1cc(Cl)cc(Cl)c1O
Completion: true (1)

Prompt: # outcome recorded in this test, key = CC(=O)Oc1ccc(C(c2ccc(OC(C)=O)cc2)c2ccccn2)cc1
Completion: false (0)

Prompt: # outcome recorded in this test, key = NC(=NCCCCCCN=C(N)/N=C(\N)Nc1ccc(Cl)cc1)/N=C(\N)Nc1ccc(Cl)cc1
Completion: true (1)

Prompt: # outcome recorded in this test, key = O=c1ccc2ccccc2o1
Completion: false (0)

Prompt: # outcome recorded in this test, key = O=C(O)CCCCC(=O)O
Completion: false (0)

Prompt: # outcome recorded in this test, key = COc1cccc2c1C(=O)c1c(O)c3c(c(O)c1C2=O)C[C@@](O)(C(=O)CO)C[C@@H]3O[C@H]1C[C@H](N)[C@H](O)[C@H](C)O1
Completion: true (1)

Prompt: # outcome recorded in this test, key = COc1cccc2c1C(=O)c1c(O)c3c(c(O)c1C2=O)C[C@@](O)(C(C)=O)C[C@@H]3O[C@H]1C[C@H](N)[C@H](O)[C@H](C)O1
Completion: true (1)

Prompt: # outcome recorded in this test, key = Nc1ccc(C(=O)O)cc1
Completion: false (0)

Prompt: # outcome recorded in this test, key = CC(=O)O[C@]1(C(C)=O)CC[C@H]2[C@@H]3C[C@H](C)C4=CC(=O)CC[C@]4(C)[C@H]3CC[C@@]21C
Completion: false (0)

Prompt: # outcome recorded in this test, key = CC(O)C(=O)O (stereo not drawn)
Completion: false (0)

Prompt: # outcome recorded in this test, key = CC(C)(C)CC(C)(C)c1ccc(OCCOCC[N+](C)(C)Cc2ccccc2)cc1
Completion: true (1)

###

# procedure-text: Cell Viability - HepG2 (AID 433);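 further: potency means the concentration at half of the fitted maximal effect; cells exposed to compound for 40 hours; potency for ATP loss meaning cytotoxicity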
# experimental-context: qHTS
Records with an inconclusive call do not appear. The source made the active and inactive calls. The call rests on the fitted dose curve.
Hello, when you answer, please use one of the following outcomes: active, inactive

Prompt: # outcome recorded in this test, key = COc1cccc2c1C(=O)c1c(O)c3c(c(O)c1C2=O)C[C@@](O)(C(=O)CO)C[C@@H]3O[C@H]1C[C@H](N)[C@H](O)[C@H](C)O1
Completion: inactive

Prompt: # outcome recorded in this test, key = C[C@]12CC[C@@H]3c4ccc(O)cc4CC[C@H]3[C@@H]1CC[C@@H]2O
Completion: inactive

Prompt: # outcome recorded in this test, key = O=C1OC(c2ccc(O)cc2)(c2ccc(O)cc2)c2ccccc21
Completion: inactive

Prompt: # outcome recorded in this test, key = Oc1ccc(O)cc1
Completion: inactive

Prompt: # outcome recorded in this test, key = COc1cccc2c1C(=O)c1c(O)c3c(c(O)c1C2=O)C[C@@](O)(C(C)=O)C[C@@H]3O[C@H]1C[C@H](N)[C@H](O)[C@H](C)O1
Completion: active

Prompt: # outcome recorded in this test, key = COC1=CC(=O)C[C@@H](C)[C@]12Oc1c(Cl)c(OC)cc(OC)c1C2=O
Completion: inactive

Prompt: # outcome recorded in this test, key = CN(C)/N=N/c1nc[nH]c1C(N)=O
Completion: inactive

###

# procedure-text: qHTS of pediatric cancer cell lines to identify multiple opportunities for drug repurposing: Confirmatory screen for DAOY cells (AID 1347114); further: nearly all actives have a fitted effect of over 65% in size
# experimental-context: DAOY medulloblastoma cells viability, cytotoxicity qHTS; series mostly up to 45.9 µM
Results filed as inconclusive are left out. Active and inactive are the calls of the source. Calls follow the shape of the dose curve; as a rule, active = well fitted cell-killing curve with a large enough effect; inconclusive = small, poorly fitted or top-dose-only effect; inactive = no such curve, though single readings can be large or run the other way.
Hello, when you answer, please use one of the following outcomes: y = active, n = inactive

Prompt: # outcome recorded in this test, key = COc1cccc2c1C(=O)c1c(O)c3c(c(O)c1C2=O)C[C@@](O)(C(=O)CO)C[C@@H]3O[C@H]1C[C@H](N)[C@H](O)[C@H](C)O1
Completion: y

Prompt: # outcome recorded in this test, key = NC(=O)CC[C@@H]1NC(=O)[C@H](Cc2ccccc2)NC(=O)[C@H](Cc2ccc(O)cc2)NC(=O)CCSSC[C@@H](C(=O)N2CCC[C@H]2C(=O)N[C@@H](CCCN=C(N)N)C(=O)NCC(N)=O)NC(=O)[C@H](CC(N)=O)NC1=O
Completion: n

Prompt: # outcome recorded in this test, key = CC(=O)OCC(=O)[C@@]12N=C(C)O[C@@H]1C[C@H]1[C@@H]3CCC4=CC(=O)C=C[C@]4(C)[C@H]3[C@@H](O)C[C@@]12C
Completion: n

Prompt: # outcome recorded in this test, key = CCCCCCC[N+](CC)(CC)CCCCc1ccc(Cl)cc1
Completion: n

Prompt: # outcome recorded in this test, key = C[C@H]1C[C@H]2[C@@H]3CCC4=CC(=O)C=C[C@]4(C)[C@@]3(Cl)[C@@H](O)C[C@]2(C)[C@@]1(O)C(=O)CO
Completion: n

Prompt: # outcome recorded in this test, key = COc1cc(C=C2CCC/C(=C\c3ccc(O)c(OC)c3)C2=O)ccc1O
Completion: y

Prompt: # outcome recorded in this test, key = CC(=O)Oc1ccc(C(c2ccc(OC(C)=O)cc2)c2ccccn2)cc1
Completion: n

Prompt: # outcome recorded in this test, key = CC1(C)O[C@@H]2C[C@H]3[C@@H]4C[C@H](F)C5=CC(=O)CC[C@]5(C)[C@H]4[C@@H](O)C[C@]3(C)[C@]2(C(=O)CO)O1
Completion: n

Prompt: # outcome recorded in this test, key = C[C@]12C=CC(=O)C=C1[C@@H](F)C[C@@H]1[C@@H]2[C@@H](O)C[C@@]2(C)[C@H]1CC[C@]2(O)C(=O)CO
Completion: n

Prompt: # outcome recorded in this test, key = CCCC(=O)O[C@]1(C(=O)CO)CC[C@H]2[C@@H]3CCC4=CC(=O)CC[C@]4(C)[C@H]3[C@@H](O)C[C@@]21C
Completion: n

Prompt: # outcome recorded in this test, key = CN(C)/N=N/c1nc[nH]c1C(N)=O
Completion: n

Prompt: # outcome recorded in this test, key = C[C@@H]1CN(CCCn2c3ccccc3c3ccccc32)C[C@H](C)N1
Completion: y

Prompt: # outcome recorded in this test, key = C[C@@H]1C[C@H]2[C@@H]3CCC4=CC(=O)C=C[C@]4(C)[C@@]3(F)[C@@H](O)C[C@]2(C)[C@H]1C(=O)CO
Completion: n

Prompt: # outcome recorded in this test, key = C[C@]12C=CC(=O)C=C1CC[C@@H]1[C@@H]2[C@@H](O)C[C@@]2(C)[C@H]1CC[C@]2(O)C(=O)CO
Completion: n

Prompt: # outcome recorded in this test, key = CN(C)C(=S)SC(=S)N(C)C
Completion: n

Prompt: # outcome recorded in this test, key = C[n+]1c2cc(N)ccc2cc2ccc(N)cc21 (tested in a mixture with another compound)
Completion: y

Prompt: # outcome recorded in this test, key = CCCCC(=O)O[C@]1(C(=O)CO)CC[C@H]2[C@@H]3CCC4=CC(=O)CC[C@]4(C)[C@H]3[C@@H](O)C[C@@]21C
Completion: n

Data credit: PubChem BioAssay (NCATS)
